Where do these numbers come from? They come from ChEMBL document CHEMBL1961873.

# target: NUAK family SNF1-like kinase 1 (Homo sapiens) (UniProt O60285)
# Sequence (O60285 whole entry): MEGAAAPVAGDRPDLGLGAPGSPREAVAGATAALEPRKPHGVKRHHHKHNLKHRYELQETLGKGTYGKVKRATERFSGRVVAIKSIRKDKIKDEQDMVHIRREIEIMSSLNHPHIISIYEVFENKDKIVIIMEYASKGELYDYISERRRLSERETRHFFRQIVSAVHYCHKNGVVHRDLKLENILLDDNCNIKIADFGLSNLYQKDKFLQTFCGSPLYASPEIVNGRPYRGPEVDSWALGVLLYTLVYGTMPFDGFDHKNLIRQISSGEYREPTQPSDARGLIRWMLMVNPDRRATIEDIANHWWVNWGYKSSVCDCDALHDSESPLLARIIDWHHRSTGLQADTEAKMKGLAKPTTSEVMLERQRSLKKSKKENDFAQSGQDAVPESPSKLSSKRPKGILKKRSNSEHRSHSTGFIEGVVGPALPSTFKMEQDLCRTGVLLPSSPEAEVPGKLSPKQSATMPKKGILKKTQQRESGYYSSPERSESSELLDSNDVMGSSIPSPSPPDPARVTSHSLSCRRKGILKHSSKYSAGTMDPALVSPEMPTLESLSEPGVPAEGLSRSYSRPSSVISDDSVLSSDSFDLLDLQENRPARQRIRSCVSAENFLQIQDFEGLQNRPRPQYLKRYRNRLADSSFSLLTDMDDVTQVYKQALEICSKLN
# test_settings: at 0.1 µM
measurement_name: inhibition (%)
Your answer should be a plain number; it is taken to be in %.

sample_smiles | inhibition / %
COC(=O)c1sc(-n2cnc3cc(OC)c(OC)cc32)cc1OCc1ccccc1C(F)(F)F | 18.4
CC(=O)Nc1cccc(C#Cc2cncnc2Nc2ccc(OCc3cccc(F)c3)c(Cl)c2)c1 | 1.95
Nc1ncc(-c2cccc(S(N)(=O)=O)c2)c2scc(-c3ccc(F)c(Cl)c3)c12 | 0.82
FC(F)(F)c1cccc(-c2nn3ncccc3c2-c2ccnc(Nc3ccc4c(c3)OCCO4)n2)c1 | 1.51
COc1cccc(-c2c[nH]c3c(N/N=C/c4ccncc4)ncnc23)c1 | 4.85

Task: # returns recorded inhibition (system: NUAK family SNF1-like kinase 1 (Homo sapiens) (UniProt O60285)) for CN1CCC(n2cnc(-c3ccc(F)cc3)c2-c2ccnc(N)n2)CC1
Output: -0.55

Task: # returns recorded inhibition (system: NUAK family SNF1-like kinase 1 (Homo sapiens) (UniProt O60285)) for N#Cc1c(NC(=O)c2ccc(F)cc2)sc2c1CCCC2
Output: -1.13

Task: # returns recorded inhibition (system: NUAK family SNF1-like kinase 1 (Homo sapiens) (UniProt O60285)) for CC(C)COC(=O)c1ccc2c(c1)/C(=C/Nc1ccc(S(N)(=O)=O)cc1)C(=O)N2
Output: 29.6

Task: # returns recorded inhibition (system: NUAK family SNF1-like kinase 1 (Homo sapiens) (UniProt O60285)) for COc1ccc(CNC(=O)c2ccc(-c3cc(-c4nnc(C)o4)ccc3C)cc2)cc1
Output: 2.93

Task: # returns recorded inhibition (system: NUAK family SNF1-like kinase 1 (Homo sapiens) (UniProt O60285)) for COc1cc2c(cc1Nc1nc(Nc3ccsc3C(N)=O)c3cc[nH]c3n1)N(C(=O)CN(C)C)CCC2(C)C
Output: 5.54

Task: # returns recorded inhibition (system: NUAK family SNF1-like kinase 1 (Homo sapiens) (UniProt O60285)) for CCN(CC)S(=O)(=O)c1ccc(OC)c(Nc2ncc(-c3ccccc3)o2)c1
Output: 5.96

Task: # returns recorded inhibition (system: NUAK family SNF1-like kinase 1 (Homo sapiens) (UniProt O60285)) for CCn1c(-c2nonc2N)nc2c(C#CC(C)(C)O)ncc(OC3CCNCC3)c21
Output: 6.16

Task: # returns recorded inhibition (system: NUAK family SNF1-like kinase 1 (Homo sapiens) (UniProt O60285)) for COc1ccc(-c2cc(-c3c[nH]nc3-c3ccccn3)ccn2)cc1;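 note: reported values are mean inhibition of ARK5 (NUAK1), from the GSK PKIS screen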
Output: -7.35
